- study system: Epidermal growth factor receptor (Homo sapiens, UniProt P00533, L858R/T790M)
- Sequence (P00533 25-1210 T790M/L858R limits assumed): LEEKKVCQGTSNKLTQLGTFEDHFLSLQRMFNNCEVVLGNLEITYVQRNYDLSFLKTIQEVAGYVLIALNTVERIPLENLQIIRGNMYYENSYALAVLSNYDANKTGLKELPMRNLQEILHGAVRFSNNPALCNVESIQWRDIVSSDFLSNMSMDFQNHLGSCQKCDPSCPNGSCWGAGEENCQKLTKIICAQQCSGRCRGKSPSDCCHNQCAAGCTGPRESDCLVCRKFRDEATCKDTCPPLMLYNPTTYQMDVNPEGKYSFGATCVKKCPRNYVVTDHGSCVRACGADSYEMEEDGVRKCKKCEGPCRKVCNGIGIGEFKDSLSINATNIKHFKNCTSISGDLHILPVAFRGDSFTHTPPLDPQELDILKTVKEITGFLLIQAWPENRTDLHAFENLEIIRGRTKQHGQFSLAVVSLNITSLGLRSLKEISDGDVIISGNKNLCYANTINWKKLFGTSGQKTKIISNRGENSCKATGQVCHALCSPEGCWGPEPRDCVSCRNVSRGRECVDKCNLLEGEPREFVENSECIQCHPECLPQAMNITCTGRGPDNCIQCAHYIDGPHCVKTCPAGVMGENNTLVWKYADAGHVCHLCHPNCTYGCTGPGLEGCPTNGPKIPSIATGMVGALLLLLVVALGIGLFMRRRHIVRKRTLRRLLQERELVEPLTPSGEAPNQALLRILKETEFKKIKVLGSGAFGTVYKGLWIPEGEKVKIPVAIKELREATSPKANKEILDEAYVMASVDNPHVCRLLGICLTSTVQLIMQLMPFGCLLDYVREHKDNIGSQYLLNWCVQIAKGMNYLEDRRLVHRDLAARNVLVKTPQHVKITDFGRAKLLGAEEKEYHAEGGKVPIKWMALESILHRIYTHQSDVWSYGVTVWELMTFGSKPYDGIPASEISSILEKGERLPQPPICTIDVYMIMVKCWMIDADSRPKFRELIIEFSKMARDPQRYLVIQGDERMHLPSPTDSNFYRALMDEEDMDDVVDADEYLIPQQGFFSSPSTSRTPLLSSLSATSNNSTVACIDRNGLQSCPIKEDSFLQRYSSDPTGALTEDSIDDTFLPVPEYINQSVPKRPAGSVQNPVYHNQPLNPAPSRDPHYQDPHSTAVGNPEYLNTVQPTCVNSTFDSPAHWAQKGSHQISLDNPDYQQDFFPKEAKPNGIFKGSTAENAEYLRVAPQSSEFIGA
- assay notes: Inhibition of EGFR T790M/L858R double mutant (unknown origin) expressed in baculovirus expression system using Poly(Glu:Tyr)4:1 substrate after 60 mins by ELISA
metric: pIC50
When answering, recall that pIC50 equals minus log10 of the concentration in mol/L, and write that number alone.

Request the reported pIC50 associated with `O=C(/C=C/CN1CCC2(CC1)OCCO2)Nc1cc2c(Nc3ccc(F)c(Cl)c3)ncnc2s1`
7.70

Request the reported pIC50 associated with `O=C(/C=C/CN1CCC(F)(F)C1)Nc1cc2c(Nc3ccc(F)c(Cl)c3)ncnc2s1`
5.76

Request the reported pIC50 associated with O=C(/C=C/CN1CC2CCC1C(=O)C2)Nc1cc2c(Nc3ccc(F)c(Cl)c3)ncnc2s1 (configuration not stated)
8.40

Request the reported pIC50 associated with `COC(CN(C)C/C=C/C(=O)Nc1cc2c(Nc3ccc(F)c(Cl)c3)ncnc2s1)OC`
7.21

Request the reported pIC50 associated with `CN(C)C/C=C/C(=O)Nc1cc2c(Nc3ccc(F)c(Cl)c3)ncnc2s1`
6.49

Request the reported pIC50 associated with `CN(C)CCCN(C)CC(=O)Nc1cc2c(Nc3ccc(F)c(Cl)c3)ncnc2s1`
5.77

Request the reported pIC50 associated with `CC(C)N1CCN(C/C=C/C(=O)Nc2cc3c(Nc4ccc(F)c(Cl)c4)ncnc3s2)CC1`
8.70

Request the reported pIC50 associated with `O=C(/C=C/CN1CC2(CCOCC2)C1)Nc1cc2c(Nc3ccc(F)c(Cl)c3)ncnc2s1`
5.65

Request the reported pIC50 associated with `CS(=O)(=O)CCNC/C=C/C(=O)Nc1cc2c(Nc3ccc(F)c(Cl)c3)ncnc2s1`
7.17

Request the reported pIC50 associated with `CCN(CC)CCN(C)C/C=C/C(=O)Nc1cc2c(Nc3ccc(F)c(Cl)c3)ncnc2s1`
6.45

Request the reported pIC50 associated with `C=CC(=O)Nc1cc2c(Nc3ccc(F)c(Cl)c3)ncnc2s1`
7.62

Request the reported pIC50 associated with `CCN(CC)C/C=C/C(=O)Nc1cc2c(Nc3ccc(F)c(Cl)c3)ncnc2s1`
7.46

Request the reported pIC50 associated with `O=C(/C=C/CN1CCCCC1)Nc1cc2c(Nc3ccc(F)c(Cl)c3)ncnc2s1`
8.70

Request the reported pIC50 associated with `CCN1CCN(C/C=C/C(=O)Nc2cc3c(Nc4ccc(F)c(Cl)c4)ncnc3s2)CC1`
8.40

Request the reported pIC50 associated with `O=C(/C=C/CN1CC(O)C1)Nc1cc2c(Nc3ccc(F)c(Cl)c3)ncnc2s1`
6.52

Request the reported pIC50 associated with `O=C(/C=C/CN1CCC(F)(F)CC1)Nc1cc2c(Nc3ccc(F)c(Cl)c3)ncnc2s1`
8.40

Request the reported pIC50 associated with `COCCNC/C=C/C(=O)Nc1cc2c(Nc3ccc(F)c(Cl)c3)ncnc2s1`
8.30

Request the reported pIC50 associated with `O=C(/C=C/CNCC1COC1)Nc1cc2c(Nc3ccc(F)c(Cl)c3)ncnc2s1`
7.66

Request the reported pIC50 associated with `O=C(/C=C/CNCc1ncccn1)Nc1cc2c(Nc3ccc(F)c(Cl)c3)ncnc2s1`
7.26

Request the reported pIC50 associated with `O=C(/C=C/CN1CC2(COC2)C1)Nc1cc2c(Nc3ccc(F)c(Cl)c3)ncnc2s1`
7.37

Request the reported pIC50 associated with `CN(C)CCCN(C)C/C=C/C(=O)Nc1cc2c(Nc3ccc(F)c(Cl)c3)ncnc2s1`
5.98

Request the reported pIC50 associated with `O=C(/C=C/CN1CCOCC1)Nc1cc2c(Nc3ccc(F)c(Cl)c3)ncnc2s1`
8.52
